# Test system: CCRIS mutagenicity, Ames/micronucleus/aberration tests
# test.protocol: CCRIS mutagenicity studies
# condition.context: Test System: AMES SALMONELLA TYPHIMURIUM; Strain/Indicator: TA98; Metabolic Activation: NONE; Method: STANDARD PLATE
The source made the active and inactive calls. How the calls were made is not given here.
measurement.type: mutagenic call

CO[C@@H]1[C@H](O)C[C@@H](O[C@@H]2C[C@H](Oc3cc4cc5c(c(O)c4c(O)c3C)C(=O)[C@@H](O[C@H]3C[C@@H](O[C@H]4C[C@@H](O[C@H]6C[C@](C)(O)[C@@H](OC(C)=O)[C@H](C)O6)[C@H](O)[C@@H](C)O4)[C@H](O)[C@@H](C)O3)[C@H]([C@H](OC)C(=O)[C@@H](O)[C@@H](C)O)C5)O[C@H](C)[C@@H]2OC(C)=O)O[C@@H]1C ... inactive; negative
CC(C)(C)C1=CC(=O)C=CC1=O ... inactive; negative
C=COc1ccccc1 ... inactive; negative

###

# Test system: CCRIS mutagenicity, Ames/micronucleus/aberration tests
# test.protocol: CCRIS mutagenicity studies
# condition.context: Test System: AMES SALMONELLA TYPHIMURIUM; Strain/Indicator: TA1535; Metabolic Activation: NONE; Method: STANDARD PLATE
Activity calls are given as the source filed them. How the calls were made is not given here.
Respond only with the outcome that fits, drawn from true (1) (active), false (0) (inactive)

Worked cases, answers included:
CN(C)CCCNc1c2ccccc2nc2ccccc12 ... false (0)
Cc1cccc(NS(=O)(=O)c2cccc3cccnc23)c1 ... false (0)
O=[N+]([O-])c1ccc(Nc2ccc(N=C=S)cc2)cc1 ... false (0)
CCN(CC)c1ccc(N=Nc2c(Cl)cc([N+](=O)[O-])cc2[N+](=O)[O-])cc1 ... false (0)
C[C@]12CC[C@@H]3c4ccc(O)cc4CC[C@H]3[C@@]13CC[C@]2(O)[C@H](O)C3 ... false (0)
CCCCCCCCC=O ... false (0)
CC(C)(C)NCC(O)c1cc(Cl)c(N)c(C(F)(F)F)c1 (stereo not given) ... false (0)
C=Cc1ccc(O)c(OC)c1 ... false (0)
CCCCCCCCCCCCCCCC(=O)OC[C@H](O)[C@H]1OC(=O)C(O)=C1O ... false (0)
N#CCCl ... false (0)

[ask] Could you kindly confirm the outcome this assay logged for CN(C)c1ccc([C@H]2C[C@]3(C)[C@@H](CC[C@]3(O)CCCO)[C@@H]3CCC4=CC(=O)CCC4=C32)cc1 ?
[reply] false (0)

[ask] Which outcome did this test record for the compound O=C1c2cccc(O)c2C(=O)c2c(O)cccc21 ?
[reply] false (0)

[ask] For this compound, state the assay outcome: CC[C@@H](C)OS(C)(=O)=O
[reply] true (1)

[ask] Could you check what this test reported for O=NN(CCCl)C(=O)NCCO ?
[reply] true (1)

[ask] I would be grateful if you could indicate the recorded call for CNCCC=C1c2ccccc2CCc2ccccc21 .
[reply] false (0)

[ask] Given O=[N+]([O-])O , state the outcome it received in this test.
[reply] false (0)

[ask] Called result for Nc1ccc2c(=O)[nH]sc2c1
[reply] false (0)

[ask] Lab log entry: O=[N+]([O-])c1cccc(OS(=O)(=O)c2cccc3cccnc23)c1 — outcome as called in the assay?
[reply] false (0)

###

# Test system: CCRIS mutagenicity, Ames/micronucleus/aberration tests
# test.protocol: CCRIS mutagenicity studies
# condition.context: Test System: AMES SALMONELLA TYPHIMURIUM; Strain/Indicator: TA98(NR); Metabolic Activation: NONE; Method: STANDARD PLATE
Activity calls are given as the source filed them. How the calls were made is not given here.
API: response.call in active, inactive

Example results:
O=[N+]([O-])c1ccc2c(c1)CCc1cc([N+](=O)[O-])ccc1-2 ... active
O=C(CBr)c1oc([N+](=O)[O-])c(-c2ccccc2)c1-c1ccccc1 ... active
COc1ccc(/C=C/c2ccc([N+](=O)[O-])cc2)cc1 ... inactive

Here's the next entry for you.
[ask] Short answer needed: outcome of this test for O=c1oc2c([N+](=O)[O-])cccc2c2ccccc12 ?
[reply] inactive

###

# Tested on: CCRIS mutagenicity, Ames/micronucleus/aberration tests
# test.protocol: CCRIS mutagenicity studies
# condition.context: Test System: AMES SALMONELLA TYPHIMURIUM; Strain/Indicator: TA98; Metabolic Activation: RAT, LIVER, S-9, AROCLOR 1254; Method: STANDARD PLATE
Calls of active or inactive are those of the source. No rule for the calls is given here.
measurement.type: mutagenic call

Cc1cc(-c2ccccc2C)ccc1N ... active; positive
CC(C)(C)C1=CC(=O)C=CC1=O ... inactive; negative
Cc1nc2c(c3[nH]c4ccccc4c13)C(=O)C(N1CCN(C)CC1)=CC2=O ... inactive; negative
ClCc1ccccn1 ... inactive; negative
C=C(C)C(=O)OCC(C)(C)COC(=O)C(=C)C ... inactive; negative

[ask] Quick one: mutagenic call of Nc1ccc([N+](=O)[O-])cc1N ?
[reply] active; positive

[ask] For the compound shown here, O=c1oc2c([N+](=O)[O-])cccc2c2ccccc12 , give the reported mutagenic call.
[reply] active; positive

[ask] Look up mutagenic call for this compound: COc1ccc(CN(CCN(C)C)c2ccccn2)cc1
[reply] inactive; negative

[ask] Which mutagenic call value is on record for O=C(O)/C(Cl)=C(/C(=O)O)C(Cl)Cl ?
[reply] inactive; negative

[ask] # input compound: O=C(c1ccccc1)C(O)c1ccccc1 (centres undefined) ; wanted: its mutagenic call
[reply] inactive; negative

[ask] Value lookup for mutagenic call; key = CCCCOc1cc(N=Nc2ccc(N(CC)CC)cc2)ccc1N=Nc1c(S(=O)(=O)O)cc2ccc(N)cc2c1O
[reply] active; positive

###

# Tested on: CCRIS mutagenicity, Ames/micronucleus/aberration tests
# test.protocol: CCRIS mutagenicity studies
# condition.context: Test System: AMES SALMONELLA TYPHIMURIUM; Strain/Indicator: TA1537; Metabolic Activation: NONE; Method: STANDARD PLATE
Activity calls are given as the source filed them. How the calls were made is not given here.
Select the correct class. Options are active, inactive and nothing else.

Use these answered entries as a reference point.
CN(C)CCCN1c2ccccc2CCc2ccccc21 ... inactive
NNc1nnc(NN)c2ccccc12 ... active
O=P(O)(O)Oc1c(Br)cc(Br)cc1-c1cc(Br)cc(Br)c1O ... inactive
COCCCN ... inactive

Attention now shifts to the item below.
[ask] Any idea what this test logged for C=CC#N ?
[reply] inactive

###

# Tested on: CCRIS mutagenicity, Ames/micronucleus/aberration tests
# test.protocol: CCRIS mutagenicity studies
# condition.context: Test System: AMES SALMONELLA TYPHIMURIUM; Strain/Indicator: TA98(1,8-DNP6); Metabolic Activation: NONE; Method: PREINCUBATION
Calls of active or inactive are those of the source. The rule behind the calls is not given here.
The categories you may choose from are 1.0 = active, 0.0 = inactive

Worked set:
CC(=O)Nc1ccc(Oc2ccc(N(OC(C)=O)C(C)=O)cc2)cc1 ... 1.0
Cn1c([N+](=O)[O-])nc2c3cccnc3ccc21 ... 0.0
CC(=O)Nc1ccc(Oc2ccc(N=O)cc2)cc1 ... 1.0
CC(=O)ON(C(C)=O)c1ccc(-c2ccccc2)cc1 ... 1.0

[ask] I would be grateful if you could indicate the recorded call for O=[N+]([O-])c1ccc(Br)c([N+](=O)[O-])c1 .
[reply] 1.0

[ask] Hi, do you know how CC(=O)Oc1cc([N+](=O)[O-])c2ccc3cccc4ccc1c2c43 came out in this test?
[reply] 1.0

[ask] Tell me the assay call for CC(=O)Nc1ccc(Oc2ccc(N(O)C(C)=O)cc2)cc1 please.
[reply] 1.0

###

# Test system: CCRIS mutagenicity, Ames/micronucleus/aberration tests
# test.protocol: CCRIS mutagenicity studies
# condition.context: Test System: AMES SALMONELLA TYPHIMURIUM; Strain/Indicator: TA1535; Metabolic Activation: RAT, LIVER, S-9, AROCLOR 1254 (30%); Method: PREINCUBATION
The source made the active and inactive calls. How the calls were made is not given here.
measurement.type: mutagenic call

Some solved cases for reference:
[CH3][Hg+] ... inactive; negative
Oc1c(Cl)c(Cl)cc(Cl)c1Cl ... inactive; negative
CCCCCCCCCCCC[S][Sn]([CH2]CCC)([CH2]CCC)[S]CCCCCCCCCCCC ... inactive; negative
Cc1cc(-c2cc(C)c(N)c(C)c2)cc(C)c1N ... inactive; negative
CN1CCC(CN2c3ccccc3Sc3ccccc32)C1 (configuration not stated) ... inactive; negative

[ask] # get_value(readout='mutagenic call', item= Nc1ccccc1C(=O)OC1CCCCC1 )
[reply] inactive; negative

[ask] What measured mutagenic call goes with CCCCOc1ccc(C=Nc2ccc(CC)cc2)cc1 ?
[reply] inactive; negative

###

# System: CCRIS mutagenicity, Ames/micronucleus/aberration tests
# test.protocol: CCRIS mutagenicity studies
# condition.context: Test System: AMES SALMONELLA TYPHIMURIUM; Strain/Indicator: TA1535; Metabolic Activation: RAT, LIVER, S-9, AROCLOR 1254; Method: PREINCUBATION
Active and inactive are the calls of the source. No rule for the calls is given here.
measurement.type: mutagenic call

Check out these entries, answers already filled in.
Brc1c(Br)c(Br)c(Oc2c(Br)c(Br)c(Br)c(Br)c2Br)c(Br)c1Br ... inactive; negative
CCCCCC[C@@H](O)C/C=C\CCCCCCCC(=O)O ... inactive; negative
C[C@]12CC[C@@H]3c4ccc(O)cc4CC[C@H]3[C@@]13CC[C@]2(O)[C@H](O)C3 ... inactive; negative
Nc1nc(N)nc(N)n1 ... inactive; negative
C=C(C)[C@H]1CC=C(C)CC1 ... inactive; negative
C(=C/c1ccccc1)/c1ccccc1 ... inactive; negative
Brc1c(Br)c(Br)c(Br)c(Br)c1Br ... inactive; negative
Nc1ccc(N)c2c1C(=O)c1c(N)ccc(N)c1C2=O ... active; positive
ClC(Cl)(Cl)c1ccccc1 ... active; positive
C[C@](N)(Cc1ccc(O)c(O)c1)C(=O)O ... inactive; negative

Okay, next one:
[ask] Please look up its mutagenic call: CC(=O)NNC(=O)c1ccccn1
[reply] inactive; negative
